Give composite z-score for every item shown.
Target: Dihydroorotate dehydrogenase (quinone), mitochondrial (Plasmodium falciparum (isolate 3D7)) (UniProt Q08210)
Sequence (Q08210 whole entry, looked up): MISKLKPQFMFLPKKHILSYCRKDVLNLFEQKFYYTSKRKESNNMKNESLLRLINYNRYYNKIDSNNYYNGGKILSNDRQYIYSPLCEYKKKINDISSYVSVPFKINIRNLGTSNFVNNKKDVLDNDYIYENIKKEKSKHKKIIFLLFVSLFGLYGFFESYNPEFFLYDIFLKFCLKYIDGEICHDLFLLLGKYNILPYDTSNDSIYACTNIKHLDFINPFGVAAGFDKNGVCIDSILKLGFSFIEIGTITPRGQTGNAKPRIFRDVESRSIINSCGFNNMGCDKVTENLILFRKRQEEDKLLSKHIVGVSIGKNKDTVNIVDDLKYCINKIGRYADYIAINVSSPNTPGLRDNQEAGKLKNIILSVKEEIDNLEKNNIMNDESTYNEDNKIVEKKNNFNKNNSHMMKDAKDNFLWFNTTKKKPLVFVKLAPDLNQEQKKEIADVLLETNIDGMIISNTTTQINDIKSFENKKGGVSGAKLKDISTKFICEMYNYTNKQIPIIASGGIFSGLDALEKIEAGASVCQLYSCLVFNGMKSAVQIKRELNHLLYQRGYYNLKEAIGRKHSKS
Experiment: PfDHODH enzyme inhibitors, primary screen, biochemical, C-terminal His tag, absorbance 600 nm (AID 1175);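 also: recombinant parasite enzyme with a five histidine tag at its C terminus; test concentration not given here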
Conditions: DCIP absorbance 600 nm, higher = more signal, called active from +8 up or from −8 down
I only need the number, thanks.

Item `COCCOC(=O)N1C(=O)[C@@]2(c3cc(C#CCCO)ccc31)[C@H](c1ccccc1OCCO)N1[C@H](c3ccccc3)[C@H](c3ccccc3)OC(=O)[C@H]1[C@@H]2C(=O)N1CCN(c2ncccn2)CC1` has what recorded composite z-score?
-0.465

Repeat for the following compound: `CCOC(=O)C[C@H]1[C@H](OC(=O)c2ccc(-c3ccccc3)cc2)[C@@H](NC(=O)Cc2ccc(OC)cc2)c2cc(OCCCO)ccc2N1C(=O)c1ccc2ccccc2n1`
-0.236

Repeat for the following compound: `CC(C)CNC(=O)[C@@]1(c2ccc([N+](=O)[O-])cc2)CC(=O)N(CC23CC4CC(CC(C4)C2)C3)[C@@H]1c1ccc(CO)cc1`
-1.23

Repeat for the following compound: C=CCC(OC(C)=O)[C@@H]1[C@@H](N(Cc2ccc(-c3cccc(C(F)(F)F)c3)o2)C(=O)c2ccc(C)cc2)c2cc(OCCCO)ccc2N1C(=O)c1ccc(-c2ccccc2)cc1 (stereo partly specified)
-0.23

Repeat for the following compound: `CC(C)Cc1ccc(CN2CC[C@@H](NS(=O)(=O)c3ccccc3)C2)cc1`
-0.371

Repeat for the following compound: `COCCOC(=O)N1C(=O)[C@@]2(c3cc(C#CCC(C(=O)OC)C(=O)OC)ccc31)[C@H](C(=O)N1CCN(c3ncccn3)CC1)[C@H]1C(=O)O[C@H](c3ccccc3)[C@H](c3ccccc3)N1[C@@H]2c1ccc(OCCO)cc1`
-0.432

---

Assay: basal MM1S mitochondrial membrane potential changes, profiling panel, cell-based, JC-1 fluorescence, 24 h, 100 nL compound (AID 1170); also: test concentration not given here
Settings: higher = more signal
Quantity kind: z-score
I only need the number, thanks.

Item O=C1C2C=CC(C(O)c3cccs3)N(Nc3ccccc3F)C2C(=O)N1c1ccccc1 (stereo unspecified) has what recorded z-score?
-0.947

Repeat for the following compound: `O=C/C=C/c1ccc(Cl)cc1`
-1.25

Repeat for the following compound: `COc1c(C)cc(-c2cc3c(c(-c4ccc(Oc5ccccc5)cc4)n2)[Si](C(C)C)(C(C)C)OC3)cc1C`
0.0963

Repeat for the following compound: `COCCOC(=O)N1C(=O)[C@@]2(c3cc(C#CCCO)ccc31)[C@H](c1ccccc1OCCO)N1[C@H](c3ccccc3)[C@H](c3ccccc3)OC(=O)[C@H]1[C@@H]2C(=O)N1CCN(c2ncccn2)CC1`
-1.1

Repeat for the following compound: `O=C1[C@]2(CO)C=C(Br)[C@@H](C[C@@H]2c2ccccc2)[C@@]12CO2`
-1.14

Repeat for the following compound: `CCOC(=O)C[C@H]1[C@H](OC(=O)c2ccc(-c3ccccc3)cc2)[C@@H](NC(=O)c2ccc3ccccc3c2)c2cc(OCCCO)ccc2N1C(=O)Cc1ccc(OC)cc1`
0.189

Repeat for the following compound: `Cc1ccc(F)cc1S(=O)(=O)N[C@@H]1CCN(Cc2ccc(-c3ccccc3)cc2)C1`
-2.99

Repeat for the following compound: `O=C1C=CC(=O)[C@@H]2CC(COc3ccccc3)=C3[C@@H](CCc4ccccc4)OB(O)C[C@@H]3[C@H]12`
-2.46

Repeat for the following compound: `Cc1ccc(S[C@]2(C(=O)O)CC(=O)N(C3Cc4ccccc4C3)[C@@H]2c2ccc(CO)cc2I)cc1`
-0.717

Repeat for the following compound: `NCCCCCNC(=O)[C@H]1C[C@H]2C(=O)NCC(=O)N2[C@H]1c1cccc(OCCO)c1`
-0.158

Repeat for the following compound: CC(c1ccccc1)C(O)C1C=CC2C(=O)NC(=O)C2N1Nc1ccccn1 (stereo unspecified)
-0.533

Repeat for the following compound: `O=C(CCN1CCOCC1)c1cccc(O)c1`
-2.97

Repeat for the following compound: `CC(C)C[C@@H]1NC(=O)[C@@H]2C[C@H](C(=O)NCCCCCC[N+](C)(C)C)[C@H](c3ccc(O)cc3)N2C1=O`
-0.39

Repeat for the following compound: `Cc1ccc(S[C@]2(C(=O)NC3CC3)CC(=O)N(Cc3ccccc3)[C@@H]2c2ccc(CO)cc2)cc1`
-0.452

Repeat for the following compound: `COCCOC(=O)N1C(=O)[C@@]2(c3ccccc31)[C@H](c1ccc(O)cc1)N1[C@H](c3ccccc3)[C@H](c3ccccc3)OC(=O)[C@H]1[C@@H]2C(=O)N1CCc2cc(OC)c(OC)cc2C1`
0.296

Repeat for the following compound: CC=CC(O)C1C=CC2C(=O)N(c3ccccc3)C(=O)C2N1Nc1ccc(C(C)C)cc1 (stereo unspecified)
-1.08
